# inhibition at 500 ppm per record follows
Tested on: tobacco mosaic virus (TMV)
protocol_description: Inhibition of local lesion formation by TMV, half-leaf method on kidney bean primary leaves
Type: in vivo, tobacco mosaic virus on kidney bean plants (variety: Otebo)
assay_context: Tobacco mosaic virus, TMV, kidney bean primary leaves, 500 ppm, painted just after inoculation, half-leaf method; read-out: Evaluation (rate of inhibition of lesion spot formation)

CCCCCCCCNC[C@H](O)[C@@H](O)[C@H](O)[C@H](O)CO 70 to 90%

Suppose we examine the compound CCCCCCCCCCCCNC[C@H](O)[C@@H](O)[C@H](O)[C@H](O)CO ; what inhibition at 500 ppm value has been reported? 90 to 100%

Suppose we examine the compound CCCCCCCCCCCCNC[C@@H](O)[C@@H](O)[C@H](O)[C@H](O)CO ; what inhibition at 500 ppm value has been reported? 90 to 100%
